target: Integrin alpha-IIb/beta-3 (Homo sapiens, UniProt P05106+P08514); assay: Antagonist activity at FITC-tagged […] integrin in human platelet rich plasma; assay type: functional, cell-free
Sequence (P05106 27-788 limits assumed): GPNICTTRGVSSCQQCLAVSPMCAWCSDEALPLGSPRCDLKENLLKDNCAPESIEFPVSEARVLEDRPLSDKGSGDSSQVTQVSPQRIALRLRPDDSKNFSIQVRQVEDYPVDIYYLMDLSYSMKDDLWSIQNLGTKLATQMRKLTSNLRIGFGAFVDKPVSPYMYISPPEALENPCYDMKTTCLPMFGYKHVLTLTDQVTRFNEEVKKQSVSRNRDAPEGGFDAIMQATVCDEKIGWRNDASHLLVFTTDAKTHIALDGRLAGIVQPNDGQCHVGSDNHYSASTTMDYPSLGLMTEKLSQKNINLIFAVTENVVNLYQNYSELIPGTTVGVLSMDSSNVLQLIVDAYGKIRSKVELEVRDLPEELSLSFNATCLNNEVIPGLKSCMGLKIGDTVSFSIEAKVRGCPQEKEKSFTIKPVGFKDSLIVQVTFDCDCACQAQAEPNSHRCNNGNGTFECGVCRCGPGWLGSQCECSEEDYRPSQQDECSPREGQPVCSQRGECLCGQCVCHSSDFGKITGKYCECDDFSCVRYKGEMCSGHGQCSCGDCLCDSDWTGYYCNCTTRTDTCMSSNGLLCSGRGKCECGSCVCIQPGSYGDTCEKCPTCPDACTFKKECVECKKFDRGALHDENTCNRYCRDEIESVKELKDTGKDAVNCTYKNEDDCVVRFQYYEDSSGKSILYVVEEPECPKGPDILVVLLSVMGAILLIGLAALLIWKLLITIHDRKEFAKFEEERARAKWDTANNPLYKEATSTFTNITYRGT
Sequence (P08514 32-887 limits assumed): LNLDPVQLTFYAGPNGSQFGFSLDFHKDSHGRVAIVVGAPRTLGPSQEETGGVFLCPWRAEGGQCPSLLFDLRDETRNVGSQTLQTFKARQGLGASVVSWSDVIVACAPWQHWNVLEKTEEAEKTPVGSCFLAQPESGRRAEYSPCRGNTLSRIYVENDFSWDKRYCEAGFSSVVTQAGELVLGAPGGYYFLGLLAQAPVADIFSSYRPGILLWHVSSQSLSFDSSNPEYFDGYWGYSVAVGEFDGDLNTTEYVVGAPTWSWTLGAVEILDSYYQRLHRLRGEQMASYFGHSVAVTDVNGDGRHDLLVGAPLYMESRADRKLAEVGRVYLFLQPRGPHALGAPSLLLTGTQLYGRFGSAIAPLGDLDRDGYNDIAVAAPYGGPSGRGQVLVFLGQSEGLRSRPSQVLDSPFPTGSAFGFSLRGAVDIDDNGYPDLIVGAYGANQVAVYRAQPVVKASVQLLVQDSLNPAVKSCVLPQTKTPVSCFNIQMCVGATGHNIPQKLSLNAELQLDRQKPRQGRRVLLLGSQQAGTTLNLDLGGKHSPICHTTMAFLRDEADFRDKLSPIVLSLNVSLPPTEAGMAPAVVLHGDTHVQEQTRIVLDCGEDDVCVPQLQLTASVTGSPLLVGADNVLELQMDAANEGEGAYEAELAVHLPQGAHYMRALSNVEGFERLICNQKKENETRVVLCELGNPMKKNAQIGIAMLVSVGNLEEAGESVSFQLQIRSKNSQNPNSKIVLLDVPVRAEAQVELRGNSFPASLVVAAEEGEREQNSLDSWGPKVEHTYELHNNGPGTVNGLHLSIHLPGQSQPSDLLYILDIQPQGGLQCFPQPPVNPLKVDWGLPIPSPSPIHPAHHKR
Sequence (P08514 891-1039 limits assumed): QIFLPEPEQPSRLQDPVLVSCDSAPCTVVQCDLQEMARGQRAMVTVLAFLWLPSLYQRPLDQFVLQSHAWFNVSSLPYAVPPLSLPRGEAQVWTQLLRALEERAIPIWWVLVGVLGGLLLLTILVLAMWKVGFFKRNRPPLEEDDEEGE
I'd appreciate it if you marked entries TRUE when IC50 is lower than 100 nM and FALSE when it is not.

INSERT INTO assay_data (compound, class_name) VALUES
  ('O=C(O)CC(NC(=O)CCC(=O)Nc1ccc2c(c1)CNCC2)c1ccccc1F (stereo not drawn)', 'FALSE'),
  ('CC(C)Oc1ccc(C(CC(=O)O)NC(=O)CCC(=O)Nc2ccc3c(c2)CNC3)cc1 (stereo not drawn)', 'FALSE'),
  ('O=C(O)CC(NC(=O)CCC(=O)Nc1ccc2c(c1)CNCC2)c1ccc2c(c1)OCO2 (stereo not drawn)', 'TRUE'),
  ('O=C(O)CCNC(=O)CCC(=O)Nc1ccc2c(c1)CNCC2', 'TRUE');

// query Lab note: IC50 threshold 100 nM. Does this compound come in strictly under it? O=C(O)CC(NC(=O)CCC(=O)Nc1ccc2c(c1)CNCC2)c1ccc(F)cc1 (stereo not drawn)
// result TRUE

// query Lab note: IC50 threshold 100 nM. Does this compound come in strictly under it? CCOc1ccc(C(CC(=O)O)NC(=O)CCC(=O)Nc2ccc3c(c2)CNCC3)cc1OC (stereo not drawn)
// result FALSE

// query Lab note: IC50 threshold 100 nM. Does this compound come in strictly under it? COc1ccc(C(CC(=O)O)NC(=O)CCC(=O)Nc2ccc3c(c2)CNC3)cc1OC (stereo not drawn)
// result FALSE

// query Lab note: IC50 threshold 100 nM. Does this compound come in strictly under it? COc1ccc(C(CC(=O)O)NC(=O)CCCC(=O)Nc2ccc3c(c2)CNCC3)cc1 (stereo not drawn)
// result FALSE
